test system: E. coli; assay: growth experiment with extracellular p-ACA, E. coli; assay type: cell-based; settings: Escherichia coli, read-out: 50% reduction of E. coli growth
Quantity measured: IC50

For this molecule ( Nc1ccc(C=CC(=O)O)cc1 ), measured IC50 is > 10 mM

----------
experiment: p-ACA solubility limit; assay type: physicochemical; conditions: aqueous buffer; extracellular, culture media
Quantity measured: solubility

For this molecule ( Nc1ccc(C=CC(=O)O)cc1 ), measured solubility is ~20 mM
